Recorded residual activity, one value per entry.
# Subject of test: MYLK2 (human)
# Protocol text: radiometric filter-binding kinase assay, Kinase HotSpot
# Condition set: compound 0.5 µM; ATP 10 µM
Just the number in %, nothing appended.

Would you please look over these solved cases?
• Cc1nc(-c2ccccc2)c(-c2ccncc2)o1 = 100
• O=C(c1cc2cc(O)ccc2[nH]1)c1cc2cc(O)ccc2[nH]1 = 21.1
• Fc1ccc(-c2nc3n(c2-c2ccncc2)CCS3)cc1 = 101
• COc1cc(Nc2c(C#N)cnc3cc(OCCCN4CCN(C)CC4)c(OC)cc23)c(Cl)cc1Cl = 32.1
• O=C1Nc2ccc(Br)cc2/C1=C\c1cc2c([nH]1)CCCC2 = 78.2

q: Requested read-out: residual activity. Entry: "Cc1cncc2cccc(S(=O)(=O)N3CCCN(C(=O)CN)C[C@H]3C)c12"
a: 101

q: Requested read-out: residual activity. Entry: "Cn1c2ccccc2c2c3c(c4c5ccccc5n(CCC#N)c4c21)CNC3=O"
a: 59.6

q: Requested read-out: residual activity. Entry: "O=C1C(Cl)=C(N2C(=O)CCC2=O)C(=O)c2ccccc21"
a: 98.1

q: Requested read-out: residual activity. Entry: "COc1ccc2c(c1)/C(=C/c1cnc[nH]1)C(O)=N2"
a: 21

q: Requested read-out: residual activity. Entry: "CN(C)CCCn1cc(C2=C(c3c[nH]c4ccccc34)C(=O)NC2=O)c2ccccc21"
a: 73.9

q: Requested read-out: residual activity. Entry: "Ic1cccc(CSc2nnc(-c3ccncc3)o2)c1"
a: 101

----------
# Subject of test: FER (human)
# Protocol text: radiometric filter-binding kinase assay, Kinase HotSpot
# Condition set: compound 0.5 µM; ATP 10 µM
Outcome measure: residual activity
Answer format: value, then unit.

Would you please look over these solved cases?
- O=C1C(Cl)=C(N2C(=O)CCC2=O)C(=O)c2ccccc21: 103%
- COc1ccc(S(=O)(=O)N(CCO)c2ccccc2CN(C)C/C=C/c2ccc(Cl)cc2)cc1: 97.1%
- O=C1NC(=O)c2c1c1c3ccccc3[nH]c1n1cncc21: 47.9%
- O=C1Nc2ccc(Br)cc2/C1=C\c1cc2c([nH]1)CCCC2: 74.7%

q: Requested read-out: residual activity. Entry: "COc1ccc(Cl)cc1NC(=O)Nc1cc(C)nc2ccccc12"
a: 92.4%

q: Requested read-out: residual activity. Entry: "CN(C)c1ccc(/C=C2\C(=O)Nc3ccccc32)cc1"
a: 94.5%

----------
# Subject of test: WEE1 (human) (UniProt P30291)
# Sequence (P30291 whole entry, looked up): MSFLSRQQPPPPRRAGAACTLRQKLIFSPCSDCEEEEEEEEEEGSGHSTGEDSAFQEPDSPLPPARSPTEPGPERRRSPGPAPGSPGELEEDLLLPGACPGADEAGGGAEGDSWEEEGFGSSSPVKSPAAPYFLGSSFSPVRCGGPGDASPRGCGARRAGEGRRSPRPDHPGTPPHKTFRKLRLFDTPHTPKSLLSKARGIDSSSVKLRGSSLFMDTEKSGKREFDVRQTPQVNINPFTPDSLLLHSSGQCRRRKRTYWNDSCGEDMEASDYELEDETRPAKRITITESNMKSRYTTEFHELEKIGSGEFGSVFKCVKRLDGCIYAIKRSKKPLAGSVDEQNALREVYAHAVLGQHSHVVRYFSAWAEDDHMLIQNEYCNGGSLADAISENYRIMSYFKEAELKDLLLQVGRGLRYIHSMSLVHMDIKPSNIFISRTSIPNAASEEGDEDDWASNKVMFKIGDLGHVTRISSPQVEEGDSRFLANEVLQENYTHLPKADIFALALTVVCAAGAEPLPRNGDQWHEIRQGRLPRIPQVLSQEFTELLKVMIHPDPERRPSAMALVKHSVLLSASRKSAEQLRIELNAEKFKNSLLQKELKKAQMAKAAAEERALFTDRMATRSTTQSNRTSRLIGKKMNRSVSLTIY
# Protocol text: radiometric filter-binding kinase assay, Kinase HotSpot
# Condition set: compound 0.5 µM; ATP 10 µM
Recorded residual activity, one value per entry.
Just the number in %, nothing appended.

Would you please look over these solved cases?
- C[C@@H]1CCN(C(=O)CC#N)C[C@@H]1N(C)c1ncnc2[nH]ccc12: 97.7
- COc1ccc(Cl)cc1NC(=O)Nc1cc(C)nc2ccccc12: 89
- COc1cc(Nc2c(C#N)cnc3cc(OCCCN4CCN(C)CC4)c(OC)cc23)c(Cl)cc1Cl: 40.5
- CN(C)c1ccc(/C=C2\C(=O)Nc3ccccc32)cc1: 88.6

q: Requested read-out: residual activity. Entry: "COc1cc2ncnc(Nc3ccc(OCc4ccccc4)cc3)c2cc1OC"
a: 94.7

q: Requested read-out: residual activity. Entry: "O=C1c2ccccc2-c2nc3nnnn3nc21"
a: 70.9
